tested_target: SMARCA2 (Homo sapiens, UniProt P51531)
Sequence (P51531 whole entry): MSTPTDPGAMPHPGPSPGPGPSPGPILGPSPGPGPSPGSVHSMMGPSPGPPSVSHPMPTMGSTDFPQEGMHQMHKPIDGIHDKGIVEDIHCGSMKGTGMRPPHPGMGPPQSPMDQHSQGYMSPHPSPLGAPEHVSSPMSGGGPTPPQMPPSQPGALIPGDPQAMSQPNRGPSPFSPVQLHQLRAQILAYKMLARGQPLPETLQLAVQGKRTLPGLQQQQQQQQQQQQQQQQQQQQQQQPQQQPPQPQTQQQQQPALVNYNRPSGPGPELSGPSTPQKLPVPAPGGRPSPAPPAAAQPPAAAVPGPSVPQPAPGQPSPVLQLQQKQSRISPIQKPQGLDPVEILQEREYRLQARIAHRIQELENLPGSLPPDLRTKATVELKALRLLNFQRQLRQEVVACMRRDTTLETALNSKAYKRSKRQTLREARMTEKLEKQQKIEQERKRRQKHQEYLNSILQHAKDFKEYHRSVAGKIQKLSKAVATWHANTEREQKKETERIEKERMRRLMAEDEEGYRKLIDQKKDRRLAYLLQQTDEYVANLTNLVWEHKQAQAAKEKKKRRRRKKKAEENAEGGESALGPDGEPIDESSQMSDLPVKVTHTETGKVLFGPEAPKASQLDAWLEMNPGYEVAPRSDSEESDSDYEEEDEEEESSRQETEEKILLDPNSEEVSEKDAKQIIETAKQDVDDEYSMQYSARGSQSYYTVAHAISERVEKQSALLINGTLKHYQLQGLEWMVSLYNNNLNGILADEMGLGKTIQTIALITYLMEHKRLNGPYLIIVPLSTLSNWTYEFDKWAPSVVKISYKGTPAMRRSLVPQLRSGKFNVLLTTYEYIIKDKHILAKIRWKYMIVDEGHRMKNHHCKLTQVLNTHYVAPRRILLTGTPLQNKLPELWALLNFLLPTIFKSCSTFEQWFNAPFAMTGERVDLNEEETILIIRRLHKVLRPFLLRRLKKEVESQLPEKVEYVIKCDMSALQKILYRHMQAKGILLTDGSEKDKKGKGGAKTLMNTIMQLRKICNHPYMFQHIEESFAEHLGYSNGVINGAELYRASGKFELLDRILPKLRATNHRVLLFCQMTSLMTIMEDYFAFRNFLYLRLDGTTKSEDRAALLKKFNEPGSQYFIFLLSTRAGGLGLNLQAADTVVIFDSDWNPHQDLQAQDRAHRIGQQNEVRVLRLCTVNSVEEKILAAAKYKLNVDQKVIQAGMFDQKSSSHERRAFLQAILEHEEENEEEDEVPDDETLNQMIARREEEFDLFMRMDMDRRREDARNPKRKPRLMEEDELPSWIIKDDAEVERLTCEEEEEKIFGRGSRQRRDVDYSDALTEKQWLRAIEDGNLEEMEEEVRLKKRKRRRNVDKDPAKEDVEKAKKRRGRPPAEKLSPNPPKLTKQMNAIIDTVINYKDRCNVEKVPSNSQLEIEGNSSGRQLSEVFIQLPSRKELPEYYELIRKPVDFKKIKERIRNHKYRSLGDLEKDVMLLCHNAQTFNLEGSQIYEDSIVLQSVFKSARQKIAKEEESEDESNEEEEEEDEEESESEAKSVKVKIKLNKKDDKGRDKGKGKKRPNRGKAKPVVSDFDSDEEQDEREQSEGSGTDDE
experiment_description: SMARCA2 Western blot degradation in MV4-11 cells
Assay type: cell-based
Design: SMARCA2/SMARCA4 protein degradation selectivity in MV4-11 cells; endogenous in cells; host or cells: MV4-11
condition_context: MV4-11, MV4-11 cells, 24 h; read-out: SMARCA2 MSD MV411 degradation 24 h: average Dmax %
As shown below, each of these compounds has a reported Dmax value.

C#Cc1ccc(CNC(=O)[C@@H]2C[C@@H](O)CN2C(=O)[C@@H](NC(=O)N2CCN(CC3CCN([C@H]4CC[C@@H](N5CCc6[nH]c7nnc(-c8ccccc8O)cc7c6[C@H]5C)CC4)CC3)CC2)C(C)(C)C)cc1 [I-203]; < 50%

Now for another entry.
## Task Find the recorded Dmax belonging to C#Cc1ccc(CNC(=O)[C@@H]2C[C@@H](O)CN2C(=O)[C@@H](NC(=O)N2CC3(CC(N4CCC(c5cnc(N6CCc7[nH]c8nnc(-c9ccccc9O)cc8c7[C@H]6C)nc5)CC4)C3)C2)C(C)(C)C)cc1F [I-310] and report it.
## Result > 90%

----------
tested_target: SMARCA2 (Homo sapiens)
experiment_description: MSD SMARCA2 degradation in A549 cell line
Format: cell-based
condition_context: A549, A549 cells, 24 h
measured_metric: Dmax

# example entries with known answers
C#Cc1ccc(CNC(=O)[C@@H]2C[C@@H](O)CN2C(=O)C(c2cc(OCCN3CCC(N4CCC(N5CCC(CN6CCN7c8cc(-c9ccccc9O)nnc8NC[C@H]7C6)CC5)CC4)CC3)no2)C(C)C)c(F)c1 (some centres unmarked); > 90%
C#Cc1ccc(CNC(=O)[C@@H]2C[C@@H](O)CN2C(=O)[C@@H](NC(=O)CN2CC3(CC(N4CCC(N5CCC(N6CCN7c8cc(-c9ccccc9O)nnc8NC[C@H]7C6)CC5)CC4)C3)C2)C(C)(C)C)cc1; > 90%
Cc1ncsc1-c1ccc(CNC(=O)[C@@H]2C[C@@H](O)CN2C(=O)C(c2cc(N3CC4(CCC(N5CCC(c6cnc(N7CCc8[nH]c9nnc(-c%10ccccc%10O)cc9c8[C@H]7C)nc6)CC5)CC4)C3)no2)C(C)C)cc1 (single isomer, unassigned); 70 to 90%
C#Cc1ccc(CNC(=O)[C@@H]2C[C@@H](O)CN2C(=O)[C@@H](NC(=O)[C@H]2CCC3(CC2)C[C@H](N2CCC(c4cnc(N5CCN6c7cc(-c8cccc(Cl)c8O)nnc7NC[C@H]6C5)nc4)CC2)C3)C(C)(C)C)cc1 (single isomer, unassigned); 70 to 90%
C#Cc1ccc(CNC(=O)[C@@H]2C[C@@H](O)CN2C(=O)[C@@H](NC(=O)N2CCC(C(=O)N3CCC(N4CCC(N5CCc6[nH]c7nnc(-c8ccccc8O)cc7c6[C@H]5C)CC4)CC3)CC2)C(C)(C)C)cc1; 70 to 90%

## Task Find the measured Dmax: item C#Cc1ccc(CNC(=O)[C@@H]2C[C@@H](O)CN2C(=O)[C@@H](NC(=O)N2CC3(CC(N4CCC(c5cnc(N6CCc7[nH]c8nnc(-c9ccccc9O)cc8c7[C@H]6C)nc5)CC4)C3)C2)C(C)(C)C)c(OCCO)c1 , target or system SMARCA2 (Homo sapiens).
## Result > 90%

## Task C#Cc1ccc(C2(NC(=O)[C@@H]3C[C@@H](O)CN3C(=O)[C@@H](NC(=O)N3CC4(CC(N5CCC(N6CCC(N7CCc8[nH]c9nnc(-c%10ccccc%10O)cc9c8[C@H]7C)CC6)CC5)C4)C3)C(C)(C)C)CC2)cc1 ?
## Result > 90%

## Task Cool, now C#Cc1ccc(CNC(=O)[C@@H]2C[C@@H](O)CN2C(=O)[C@@H](NC(=O)[C@H]2CCC3(CC2)C[C@H](N2CCC(N4CC5(CC(N6CCN7c8cc(-c9ccccc9O)nnc8NC[C@H]7C6)C5)C4)CC2)C3)C(C)(C)C)cc1 (single isomer, unassigned)
## Result > 90%

----------
tested_target: UniProtKB P51531
experiment_description: MSD SMARCA2 degradation in A549 cell line
Type: cell-based
condition_context: A549 cells, 24 h, read-out: SMARCA2 MSD A549 degradation 24 h: Average external-Abs DC50
Method: Example 10. MSD SMARCA2 Degradation in A549 Cell Line Cells were seeded into 96-well plates (A549 cells: 2×10^4 cells/well/100 ul media) and incubated overnight. […] The MSD plate was washed three times with 150 uL/well of TBST and 150 ul/well of 2× MSD reading buffer diluted from 4× (MSD, R92TC-2) with water was added. Lastly, the MSD instrument was read. […]
measured_metric: DC50

Sample records with DC50:
C#Cc1ccc(CNC(=O)[C@@H]2C[C@@H](O)CN2C(=O)[C@@H](NC(=O)N2CC3(CC(N4CCC(N5CCC(N6CCc7[nH]c8nnc(-c9ccccc9O)cc8c7[C@H]6C)CC5)CC4)C3)C2)C(C)(C)C)c(F)c1; > 100 nM
C#Cc1ccc(CNC(=O)[C@@H]2C[C@@H](O)CN2C(=O)[C@@H](NC(=O)N2CC3(CC(N4CC5(CC(N6CCC(N7CCc8[nH]c9nnc(-c%10ccccc%10O)cc9c8[C@H]7C)CC6)C5)C4)C3)C2)C(C)(C)C)cc1; > 100 nM
Cc1ncsc1-c1ccc(CNC(=O)[C@@H]2C[C@@H](O)CN2C(=O)[C@@H](NC(=O)[C@H]2CC3(C2)C[C@H](N2CCC(N4CCC(c5ccc6[nH]c7nnc(-c8ccccc8O)cc7c6c5)CC4)CC2)C3)C(C)(C)C)cc1 (single isomer, unassigned) [I-28]; 50 to 100 nM
C#Cc1ccc(CNC(=O)[C@@H]2C[C@@H](O)CN2C(=O)[C@H](NC(=O)N2CC3(CC(N4CCC(c5cnc(N6CCc7[nH]c8nnc(-c9ccccc9O)cc8c7[C@H]6C)nc5)CC4)C3)C2)C(C)(C)CCN2CCN[C@H](C(=O)O)C2)cc1; > 100 nM
C#Cc1ccc([C@H](C)NC(=O)[C@@H]2C[C@@H](O)CN2C(=O)[C@@H](NC(=O)[C@H]2CC3(C2)C[C@H](N2CCC(N4CCC(N5CCN6c7cc(-c8ccccc8O)nnc7NC[C@H]6C5)CC4)CC2)C3)C(C)(C)C)cc1 (single isomer, unassigned) [I-226]; > 100 nM

## Task Record request: DC50 value, item C#Cc1ccc(CNC(=O)[C@@H]2C[C@@H](O)CN2C(=O)[C@@H](NC(=O)N2CC3(CC(N4CCC(c5cnc(N6CCc7[nH]c8nnc(-c9ccccc9O)cc8c7[C@H]6C)nc5)CC4)C3)C2)C(C)(C)C)c(OCC(=O)O)c1
## Result 10 to 50 nM

## Task Lookup C#Cc1ccc(CNC(=O)[C@@H]2C[C@@H](O)CN2C(=O)[C@H](NC(=O)N2CC3(CC(N4CCC(c5cnc(N6CCc7[nH]c8nnc(-c9ccccc9O)cc8c7[C@H]6C)nc5)CC4)C3)C2)C(C)(C)CCOCC(=O)O)cc1 (single isomer, unassigned)
## Result > 100 nM

## Task Same again, this time with Cc1ncsc1-c1ccc(CNC(=O)[C@@H]2C[C@@H](O)CN2C(=O)[C@@H](NC(=O)[C@H]2CCC3(CC2)C[C@H](N2CCC(c4ccc(N5CCN6c7cc(-c8ccccc8O)nnc7NC[C@H]6C5)nc4)CC2)C3)C(C)(C)C)cc1 (some centres unmarked) [I-94]
## Result 10 to 50 nM

----------
tested_target: SMARCA2 (Homo sapiens)
experiment_description: SMARCA2 Western blot degradation in MV4-11 cells
Type: cell-based
Set-up: SMARCA2/SMARCA4 protein degradation selectivity in MV4-11 cells; endogenous in cells; host or cells: MV4-11
condition_context: SMARCA2/4 selectivity, MV4-11 cells
measured_metric: Selectivity in MV411

Known results for compounds:
Cc1ncsc1-c1ccc(CNC(=O)[C@@H]2C[C@@H](O)CN2C(=O)[C@@H](NC(=O)C2(F)CC2)C(C)(C)C)c(OCCCCN2CCC(c3cnc(N4CCN5c6cc(-c7ccccc7O)nnc6NC[C@H]5C4)nc3)CC2)c1 (single isomer, unassigned); C (C (10-100 fold))
C#Cc1ccc(CNC(=O)[C@@H]2C[C@@H](O)CN2C(=O)[C@@H](NC(=O)N2CC3(CN(CC4CCN(c5cnc(N6CCc7[nH]c8nnc(-c9ccccc9O)cc8c7[C@@H]6C)nc5)CC4)C3)C2)C(C)(C)C)cc1; D (D (<10 fold))
Cc1ncsc1-c1ccc(CNC(=O)[C@@H]2C[C@@H](O)CN2C(=O)[C@@H](NC(=O)N2CC3(CC(N4CCN(c5ccnc(N6CCN7c8cc(-c9ccccc9O)nnc8NC[C@H]7C6)n5)CC4)C3)C2)C(C)(C)C)cc1; D (D (<10 fold))
C#Cc1ccc(CNC(=O)[C@@H]2C[C@@H](O)CN2C(=O)[C@@H](NC(=O)N2CC3(CC(N4CCC(c5cnc(N6CCc7[nH]c8nnc(-c9ccccc9O)cc8c7[C@H]6C)s5)CC4)C3)C2)C(C)(C)C)cc1; C (C (10-100 fold))
C#Cc1ccc([C@H](C)NC(=O)[C@@H]2C[C@@H](O)CN2C(=O)[C@@H](OC(=O)N2CC3(CC(N4CCC(c5cnc(N6CCc7[nH]c8nnc(-c9ccccc9O)cc8c7[C@H]6C)nc5)CC4)C3)C2)C(C)(C)C)cc1; C (C (10-100 fold))
C#Cc1ccc(CNC(=O)[C@@H]2C[C@@H](O)CN2C(=O)[C@@H](NC(=O)N2CC3(CC(N4CCC(c5cnc(N6CCc7[nH]c8nnc(-c9ccccc9O)cc8c7[C@H]6C)nc5)CC4)C3)C2)C(C)(C)C)cc1 (single isomer, unassigned); C (C (10-100 fold))

## Task Entry C#Cc1ccc(CNC(=O)[C@@H]2C[C@@H](O)CN2C(=O)[C@@H](NC(=O)C2CCC3(CC2)CC(N2CCC(c4ccc(N5CCN6c7cc(-c8ccccc8O)nnc7NC[C@H]6C5)cc4)CC2)C3)C(C)(C)C)cc1 (stereo partly drawn) has what Selectivity in MV411?
## Result C (C (10-100 fold))

## Task Also, C#Cc1ccc(CNC(=O)[C@@H]2C[C@@H](O)CN2C(=O)[C@@H](NC(=O)N2CC3(CC(N4CCC([C@H]5CC[C@@H](N6CCc7[nH]c8nnc(-c9ccccc9O)cc8c7[C@H]6C)CC5)CC4)C3)C2)C(C)(C)C)cc1 please.
## Result C (C (10-100 fold))

Reference source for all entries: patent US20250170248A1
